# System: BRCA-2 deficient CAPAN-1 human pancreatic cancer cells
# runDescription: Cell growth inhibition of BRCA-2 deficient CAPAN-1 cells, MTT based cell viability assay
# assaySetup: Homo sapiens, CAPAN-1, 240 h, read-out: Growth inhibition of CAPAN-1 cells by compounds (IC50)
I'd appreciate it if you could supply IC50 values for the items below.
Please state the figure in nM; there is no need to write the unit.

If you can, please state the reported IC50 value of O=C(c1cc(Cn2c3c(c(=O)[nH]c2=O)CCCC3)ccc1F)N1CCN(C(=O)C2CCCC2)CC1 [Example 25] .
69

Entry O=C(c1cc(Cn2c3c(c(=O)[nH]c2=O)CCCC3)ccc1F)N1CCN(c2ccccc2)CC1 [Example 33] please
3650

Entry O=C(c1cccc(Cn2c3c(c(=O)[nH]c2=O)CCCC3)c1)N1CCN(C(=O)C2CCCC2)CC1 [Example 9] please
107

Entry O=C(c1cc(Cn2c3c(c(=O)[nH]c2=O)CCCC3)ccc1F)N1CCN(C(=O)C2CCC2)CC1 [Example 22] please
117

* * *

I'd appreciate it if you could supply pIC50 values for the items below.
# Tested on: BRCA-2 deficient CAPAN-1 human pancreatic cancer cells
# runDescription: Cell growth inhibition of BRCA-2 deficient CAPAN-1 cells, MTT based cell viability assay
# assaySetup: Homo sapiens, CAPAN-1, 240 h, read-out: Growth inhibition of CAPAN-1 cells by compounds (IC50)
Would you please state pIC50, meaning minus log10 of the concentration in mol/L, as a bare number?

If you can, please state the reported pIC50 value of "O=C(c1cc(Cn2c3c(c(=O)[nH]c2=O)CCCC3)ccc1F)N1CCN(C2CCCCC2)CC1" .
5.91

Entry "O=C(c1cc(Cn2c3c(c(=O)[nH]c2=O)CCCC3)ccc1F)N1CCN(c2cnccn2)CC1" please
6.53

Entry "O=C(c1cc(Cn2c3c(c(=O)[nH]c2=O)CCCC3)ccc1F)N1CCN(c2nccs2)CC1" please
7.31

Entry O=C(c1cc(Cc2n[nH]c(=O)c3ccccc23)ccc1F)N1CCN(C(=O)C2CC2)CC1 [AZD2281, olaparib, reference compound] please
5.97

Entry O=C(c1cc(Cn2c3c(c(=O)[nH]c2=O)CCCC3)ccc1F)N1CCN(C(=O)C2CCCO2)CC1 (stereo not shown) please
6.82

Entry "O=C(c1cccc(Cn2c3c(c(=O)[nH]c2=O)CCCC3)c1)N1CCN(c2ncccn2)CC1" please
7.66

Entry "O=C(c1cccc(Cn2c3c(c(=O)[nH]c2=O)CCCC3)c1)N1CCN(c2ccccn2)CC1" please
7.49

* * *

# System: BRCA-2 deficient CAPAN-1 human pancreatic cancer cells
# runDescription: Cell growth inhibition of BRCA-2 deficient CAPAN-1 cells, MTT based cell viability assay
# assaySetup: Homo sapiens, CAPAN-1, 240 h, read-out: Growth inhibition of CAPAN-1 cells by compounds (IC50)
quantity: IC50 (nM)
Please state the figure in nM; there is no need to write the unit.

If you can, please state the reported IC50 value of O=C(c1ccc(F)c(Cn2c3c(c(=O)[nH]c2=O)CCCC3)c1)N1CCN(C(=O)C2CCC2)CC1 [Example 50] .
1000

Entry O=C(c1ccc(F)c(Cn2c3c(c(=O)[nH]c2=O)CCCC3)c1)N1CCN(C(=O)C2CCCC2)CC1 [Example 42] please
146

Entry O=C(c1ccsc1)N1CCN(C(=O)c2cc(Cn3c4c(c(=O)[nH]c3=O)CCCC4)ccc2F)CC1 [Example 36] please
221

Entry O=C(c1ccc(F)c(Cn2c3c(c(=O)[nH]c2=O)CCCC3)c1)N1CCN(c2ccccn2)CC1 [Example 47] please
116

Entry O=C(c1cc(Cn2c3c(c(=O)[nH]c2=O)CCCC3)ccc1F)N1CCN(c2ccccn2)CC1 [Example 26] please
93

Entry O=C(c1cc(Cn2c3c(c(=O)[nH]c2=O)CCCC3)ccc1F)N1CCN(CC2CCCCC2)CC1 [Example 38] please
2270

Entry O=C(c1ccoc1)N1CCN(C(=O)c2cc(Cn3c4c(c(=O)[nH]c3=O)CCCC4)ccc2F)CC1 [Example 35] please
285

Entry O=C(c1ccc(F)c(Cn2c3c(c(=O)[nH]c2=O)CCCC3)c1)N1CCN(C(=O)C2CCCCC2)CC1 [Example 49] please
123

Entry O=C(c1cc(Cn2c3c(c(=O)[nH]c2=O)CCCC3)ccc1F)N1CCN(C(=O)C2CCCCC2)CC1 [Example 24] please
58

Entry O=C(c1cc(Cn2c3c(c(=O)[nH]c2=O)CCCC3)ccc1F)N1CCN(c2ncccn2)CC1 [Example 20] please
17

Entry O=C(c1cccs1)N1CCN(C(=O)c2cc(Cn3c4c(c(=O)[nH]c3=O)CCCC4)ccc2F)CC1 [Example 21] please
101

Entry O=C(c1ccc(F)c(Cn2c3c(c(=O)[nH]c2=O)CCCC3)c1)N1CCN(c2nccs2)CC1 [Example 51] please
134

Entry O=C(c1ccsc1)N1CCN(C(=O)c2ccc(F)c(Cn3c4c(c(=O)[nH]c3=O)CCCC4)c2)CC1 [Example 46] please
703

Entry O=C(c1ccccc1)N1CCN(C(=O)c2cc(Cn3c4c(c(=O)[nH]c3=O)CCCC4)ccc2F)CC1 [Example 18] please
35

Entry O=C(c1ccco1)N1CCN(C(=O)c2cc(Cn3c4c(c(=O)[nH]c3=O)CCCC4)ccc2F)CC1 [Example 27] please
81

* * *

# System: Human breast cancer cell line T47D
# runDescription: Potentiation of MMS induced apoptosis, cell based caspase-3 activity assay;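 note: Caspase-3 activity in cell lysates measured by fluorescence (RFU), EC50 fitted from sigmoidal curve of signal versus log compound concentration in presence of MMS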
# assaySetup: read-out: Compounds potentiate the apoptosis inducing activity of MMS (EC50); T47D cells, 100 nM MMS, 24 hours, intracellular caspase-3 activity
I'd appreciate it if you could supply pEC50 values for the items below.
Would you please state pEC50, meaning minus log10 of the concentration in mol/L, as a bare number?

Kindly state the measured pEC50 obtained for "O=C(c1cc(Cn2c3c(c(=O)[nH]c2=O)SCCC3)ccc1F)N1CCN(c2ncccn2)CC1" with Human breast cancer cell line T47D.
7.52

Entry CC1CCCc2c1c(=O)[nH]c(=O)n2Cc1ccc(F)c(C(=O)N2CCN(c3ccccn3)CC2)c1 (centres unmarked) please
6.46

Entry "O=C(c1cccc(Cn2c3c(c(=O)[nH]c2=O)CCC3)c1)N1CCN(c2ncccn2)CC1" please
6.40

Entry "O=C(c1cc(Cn2c3c(c(=O)[nH]c2=O)CCCC3)ccc1F)N1CCN(C(=O)C2CCOCC2)CC1" please
7.01

Entry "O=C(c1ccc(F)c(Cn2c3c(c(=O)[nH]c2=O)CCCC3)c1)N1CCN(c2ncccn2)CC1" please
8.66

* * *

# systemName: PARP-1 enzyme (Homo sapiens, UniProt P09874)
# Construct: purchased Trevigen, Inc. 4676-096-K
# Sequence (P09874 whole entry): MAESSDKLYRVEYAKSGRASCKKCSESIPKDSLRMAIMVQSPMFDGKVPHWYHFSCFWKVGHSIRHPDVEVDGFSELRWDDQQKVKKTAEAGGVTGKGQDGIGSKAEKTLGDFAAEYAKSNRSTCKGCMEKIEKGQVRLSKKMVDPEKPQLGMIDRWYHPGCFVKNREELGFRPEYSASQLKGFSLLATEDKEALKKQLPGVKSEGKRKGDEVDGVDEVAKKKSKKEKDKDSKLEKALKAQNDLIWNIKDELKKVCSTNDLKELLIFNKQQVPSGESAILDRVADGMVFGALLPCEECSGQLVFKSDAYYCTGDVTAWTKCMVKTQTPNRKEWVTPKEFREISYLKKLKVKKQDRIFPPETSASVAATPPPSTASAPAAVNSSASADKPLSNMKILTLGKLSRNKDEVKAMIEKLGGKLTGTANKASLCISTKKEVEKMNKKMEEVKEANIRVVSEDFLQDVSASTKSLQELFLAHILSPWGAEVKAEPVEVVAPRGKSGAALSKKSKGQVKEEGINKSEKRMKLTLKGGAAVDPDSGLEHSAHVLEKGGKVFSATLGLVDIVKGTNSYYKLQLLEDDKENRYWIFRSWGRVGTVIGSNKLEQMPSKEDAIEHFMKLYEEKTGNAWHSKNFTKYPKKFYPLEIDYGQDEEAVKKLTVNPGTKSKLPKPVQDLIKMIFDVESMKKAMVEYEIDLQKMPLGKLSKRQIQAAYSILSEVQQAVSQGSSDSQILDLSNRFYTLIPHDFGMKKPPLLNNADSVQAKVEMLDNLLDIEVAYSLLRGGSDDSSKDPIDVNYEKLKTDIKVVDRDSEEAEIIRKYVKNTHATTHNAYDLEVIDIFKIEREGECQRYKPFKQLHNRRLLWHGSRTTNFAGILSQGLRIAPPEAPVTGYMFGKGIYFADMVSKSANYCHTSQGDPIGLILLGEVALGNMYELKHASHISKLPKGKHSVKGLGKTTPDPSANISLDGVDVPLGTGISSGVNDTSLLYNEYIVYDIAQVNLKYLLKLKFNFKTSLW
# runDescription: PARP-1 enzymatic activity assay (Trevigen 96-well kit)
# Assay type: biochemical
# assaySetup: 0.5 unit PARP-1, histone pre-coated plate, 60 min room temperature; read-out: The inhibitory effect of compounds on PARP-1 enzymatic activity (IC50)
quantity: IC50

If you can, please state the reported IC50 value of "O=C(c1cc(Cn2c3c(c(=O)[nH]c2=O)CCCC3)ccc1F)N1CCN(c2ncccn2)CC1" .
2.6 nM

* * *

# Test system: SW620 human colorectal cancer cells
# runDescription: Potentiation of the growth inhibiting activity of MMS, MTT based cell viability assay
# assaySetup: Homo sapiens, SW-620, 120 h, read-out: Compounds potentiate the growth inhibiting activity of MMS (IC50)
quantity: pIC50
Would you please state pIC50, meaning minus log10 of the concentration in mol/L, as a bare number?

If you can, please state the reported pIC50 value of O=C(c1cccc(Cn2c3c(c(=O)[nH]c2=O)CCCC3)c1)N1CCN(c2ccccn2)CC1 [Example 11] .
8.16

Entry O=C(c1cc(Cn2c3c(c(=O)[nH]c2=O)CCCC3)ccc1F)N1CCN(c2ncccn2)CC1 [Example 20] please
9.08

Entry O=C(c1cc(Cn2c3c(c(=O)[nH]c2=O)CCCC3)ccc1F)N1CCN(c2ccccn2)CC1 [Example 26] please
8.64

Entry O=C(c1ccc(F)c(Cn2c3c(c(=O)[nH]c2=O)CCCC3)c1)N1CCN(C(=O)C2CCCCC2)CC1 [Example 49] please
8.28

Entry O=C(c1cccc(Cn2c3c(c(=O)[nH]c2=O)CCCC3)c1)N1CCN(C(=O)C2CC2)CC1 [Example 6] please
6.92

Entry O=C(c1cccc(Cn2c3c(c(=O)[nH]c2=O)CCCC3)c1)N1CCN(C(=O)c2cccs2)CC1 [Example 7] please
7.68

Entry O=C(c1ccc(F)c(Cn2c3c(c(=O)[nH]c2=O)CCCC3)c1)N1CCN(C(=O)c2ccco2)CC1 [Example 52] please
7.80

Entry O=C(c1cccc(Cn2c3c(c(=O)[nH]c2=O)CCCC3)c1)N1CCN(C(=O)C2CCCC2)CC1 [Example 9] please
7.92

Entry O=C(c1cccc(Cn2c3c(c(=O)[nH]c2=O)CCCC3)c1)N1CCN(c2cnccn2)CC1 [Example 16] please
7.89

Entry O=C(c1cccc(Cn2c3c(c(=O)[nH]c2=O)CCCC3)c1)N1CCN(C(=O)C2CCCCC2)CC1 [Example 12] please
8.01

Entry O=C(c1ccsc1)N1CCN(C(=O)c2ccc(F)c(Cn3c4c(c(=O)[nH]c3=O)CCCC4)c2)CC1 [Example 46] please
8.00

Entry O=C(c1cc(Cn2c3c(c(=O)[nH]c2=O)CCCC3)ccc1F)N1CCN(C(=O)C2CC2)CC1 [Example 19] please
7.60

Entry O=C(c1ccc(F)c(Cn2c3c(c(=O)[nH]c2=O)CCCC3)c1)N1CCN(c2nccs2)CC1 [Example 51] please
7.89

Entry O=C(c1cccs1)N1CCN(C(=O)c2cc(Cn3c4c(c(=O)[nH]c3=O)CCCC4)ccc2F)CC1 [Example 21] please
8.89

Entry O=C(c1cc(Cn2c3c(c(=O)[nH]c2=O)CCCC3)ccc1F)N1CCC(c2ccccc2)CC1 [Example 54] please
6.97

Entry O=C(c1cccc(Cn2c3c(c(=O)[nH]c2=O)CCCC3)c1)N1CCN(c2ncccn2)CC1 [Example 5] please
7.82

Entry O=C(c1ccc(F)c(Cn2c3c(c(=O)[nH]c2=O)CCCC3)c1)N1CCN(C(=O)C2CCCC2)CC1 [Example 42] please
8.32
